test: Pharmacokinetics of BC-4 and BC-5 in mouse plasma and brain; assay type: in vivo; settings: mouse; Plasma, Balb/c mice, single oral dose 5 mg/kg; read-out: Cmax
readout_label: Cmax (ng/mL)
Give the number; ng/mL is assumed, so skip it.

Reported Cmax for `COc1ccc(/C=C/c2cc(OC)cc(B(O)O)c2)cc1` was 578

====

Test: Pharmacokinetics of BC-4 and BC-5 in mouse plasma and brain
Type: in vivo
Conditions: mouse; Plasma, Balb/c mice, single oral dose 5 mg/kg; read-out: T½
Description: Pharmacokinetics of BC-4 and BC-5 were compared to BC-1. Pharmacokinetics were assessed in Balb/c mice administered a single oral dose of 5 mg/kg of the indicated compound (Tables 11 and 12).
readout_label: half-life (min)
# output: bare number, implied unit min

So for `COc1ccc(/C=C/c2cc(OC)cc(B(O)O)c2)cc1` , the logged half-life turned out to be 44

====

assay: Brain pharmacokinetics in mice; format: in vivo; details: 25 mg/kg single dose P.O., 24.00 h
readout_label: Mean Plasma Concentration (ng/mL)
Please give a number only; it is taken to be in ng/mL.

// field: Mean Plasma Concentration; key: `COc1ccc(/C=C/c2cc(OC)cc(B(O)O)c2)cc1` ; value = 0

====

molecular target: CYP2D6 (Homo sapiens, UniProt P10635)
Sequence (P10635 whole entry): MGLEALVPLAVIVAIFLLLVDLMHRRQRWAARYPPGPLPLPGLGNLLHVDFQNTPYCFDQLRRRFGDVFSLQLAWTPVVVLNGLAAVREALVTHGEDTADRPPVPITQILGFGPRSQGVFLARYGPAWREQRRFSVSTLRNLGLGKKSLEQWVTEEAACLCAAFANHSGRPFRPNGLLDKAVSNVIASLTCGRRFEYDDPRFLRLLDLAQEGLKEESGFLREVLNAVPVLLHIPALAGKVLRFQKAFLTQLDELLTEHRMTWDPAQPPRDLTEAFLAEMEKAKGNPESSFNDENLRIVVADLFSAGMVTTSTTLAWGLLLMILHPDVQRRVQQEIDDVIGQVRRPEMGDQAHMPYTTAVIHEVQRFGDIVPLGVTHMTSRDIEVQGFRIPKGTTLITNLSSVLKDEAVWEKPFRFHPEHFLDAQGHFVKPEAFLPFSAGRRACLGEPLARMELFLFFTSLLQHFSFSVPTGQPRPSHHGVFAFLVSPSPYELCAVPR
readout_label: IC50

Lookup result for `COc1ccc(/C=C/c2cc(OC)cc(B(O)O)c2)cc1` ; measured IC50: > 100 µM

====

experiment: Brain pharmacokinetics in mice; format: in vivo; conditions: mouse; Plasma, oral 25 mg/kg
readout_label: AUC(0-t) (ng·h/mL)
Express your answer in ng·h/mL, writing the number without its unit.

# AUC(0-t) of `COc1ccc(/C=C/c2cc(OC)cc(B(O)O)c2)cc1` = 15700

====

assay: Plasma vs tumor PK in MDA-MB-231 xenograft mice; format: in vivo, athymic nude mice; conditions: athymic nude, mouse; Plasma, oral 75 mg/kg
readout_label: MRT last (h)
Unit h implied. Number only.

Looking up `COc1ccc(/C=C/c2cc(OC)cc(B(O)O)c2)cc1` , I found its MRT last recorded as 5.76

====

experiment: Brain pharmacokinetics in mice; type: in vivo; settings: mouse; Plasma, oral 25 mg/kg
readout_label: half-life (h)
The reply should be a number in h, with the unit left off.

Data point: COc1ccc(/C=C/c2cc(OC)cc(B(O)O)c2)cc1 [VMY-BC-1] ; half-life = 1.95

====

experiment: Mouse plasma protein binding (in vitro binding study); type: in vitro ADME, CD1 mouse; settings: CD1, mouse, plasma; Table 3
readout_label: fraction unbound

Per the records, this compound ( `COc1ccc(/C=C/c2cc(OC)cc(B(O)O)c2)cc1` ) has fraction unbound equal to 0.265

====

experiment: Brain pharmacokinetics in mice; assay type: in vivo; details: mouse, brain and plasma, po; 25 mg/kg single dose P.O., 3.00 h; read-out: Brain to Plasma Ratio
readout_label: Kp at 3 h
Output spec: single numeric token, no unit.

Lab note: COc1ccc(/C=C/c2cc(OC)cc(B(O)O)c2)cc1 [VMY-BC-1] gave Kp at 3 h of 3.17

====

assay: Pharmacokinetics of BC-4 and BC-5 in mouse plasma and brain; format: in vivo; settings: mouse; Brain, Balb/c mice, single oral dose 5 mg/kg; read-out: Cmax
readout_label: Cmax (ng/g)
Give just the numeric value; ng/g need not be written.

Consider `COc1ccc(/C=C/c2cc(OC)cc(B(O)O)c2)cc1` . Its measured Cmax is 1560
